Data provenance is patent US4608390A.

- experimental.target: 15-lipoxygenase (Glycine max, UniProt P08170)
- Construct: 15-lipoxygenase obtained from soybean; from tissue; host or cells: soybean
- Sequence (P08170 whole entry): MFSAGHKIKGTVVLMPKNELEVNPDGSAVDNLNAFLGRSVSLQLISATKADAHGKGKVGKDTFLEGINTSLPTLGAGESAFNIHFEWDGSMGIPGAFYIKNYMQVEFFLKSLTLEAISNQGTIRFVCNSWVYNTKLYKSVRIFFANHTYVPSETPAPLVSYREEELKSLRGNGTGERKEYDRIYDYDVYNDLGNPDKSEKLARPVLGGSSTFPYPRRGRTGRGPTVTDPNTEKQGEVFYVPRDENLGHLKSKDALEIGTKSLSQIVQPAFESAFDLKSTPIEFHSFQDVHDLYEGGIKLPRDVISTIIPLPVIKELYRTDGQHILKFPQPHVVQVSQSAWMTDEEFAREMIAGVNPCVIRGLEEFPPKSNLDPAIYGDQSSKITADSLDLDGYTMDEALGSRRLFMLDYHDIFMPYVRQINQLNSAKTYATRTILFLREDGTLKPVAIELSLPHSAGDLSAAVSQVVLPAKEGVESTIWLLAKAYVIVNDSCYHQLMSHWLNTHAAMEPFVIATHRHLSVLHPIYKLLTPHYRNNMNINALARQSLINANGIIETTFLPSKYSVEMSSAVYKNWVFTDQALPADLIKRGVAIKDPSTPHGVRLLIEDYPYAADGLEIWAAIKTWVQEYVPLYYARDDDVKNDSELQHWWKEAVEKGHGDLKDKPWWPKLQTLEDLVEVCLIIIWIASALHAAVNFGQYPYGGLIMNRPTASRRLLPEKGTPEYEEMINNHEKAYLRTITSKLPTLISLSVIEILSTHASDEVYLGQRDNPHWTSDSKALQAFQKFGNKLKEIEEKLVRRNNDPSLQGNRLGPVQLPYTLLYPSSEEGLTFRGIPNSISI
- assay.procedure: 15-lipoxygenase inhibition (15-lipoxygenase obtained from soybean)
- Format: biochemical
- assay.context: read-out: % Inhibition at Indicated Concentration, 15-lipoxygenase, 10 μM
endpoint.name: inhibition at 10 µM (%)

compound: CN(O)C(=O)C=Cc1cc2ccccc2cc1[N+](=O)[O-] [Example 13]
reported.value: 19
//
compound: CC(C)N(O)C(=O)C=Cc1ccc2ccccc2c1 [Example 3]
reported.value: 31
//
compound: CC(=CC(=O)N(C)O)c1ccc2ccccc2c1 [Example 12]
reported.value: 37
//
compound: O=C(C=Cc1ccc2ccccc2c1)N(O)C1CCCCC1 [Example 4]
reported.value: 43

a. CCCCCC=Cc1ccc2ccc(C=CC(=O)N(C)O)cc2c1 [Example 14]
b. Cc1ccc2ccc(CCC(=O)NO)cc2c1 [Example 19]
Of the two listed items, which has the higher inhibition at 10 µM? First: a Second: b Lab note: record the label of whichever item you select.
a
